Entry source: patent US20240376189A1

# assay_system: T1, cynomolgus antigen (cynomolgus)
# T1 construct: also called cyno antigen; cynomolgus monkey C5a
# method_summary: SPR, scFv captured via anti-c-myc/anti-His, 60 nM cynomolgus antigen as analyte, 1:1 fit
endpoint: koff (s⁻¹)
Answer with a number only, understood to be in s⁻¹.

(Q) Requested read-out: koff. Entry: 13B9 (scFv, V domains shown, Combination mutant scFv) VH: QVQLVQSGAEVKKPGSSVKVSCKASGYTFTDHIIHWMRQAPGQGLEWMGYIYPREGWTNYNENFKGRVTITADKSTSTAYMELSSLRSEDTAVYYCARERNLEYFDYWGQGTTVTVSS VL: DIVLTQSPASLAVSPGQRATITCKASQSVDFEGFNYMNWYQQKPGQPPKLLIYAASNLDSGVPARFSGSGSGTDFTLTINPVEAEDTANYYCQQSNEDPHTFGGGTKVEIK
(A) 0.000327

(Q) Requested read-out: koff. Entry: 18D3 (scFv, V domains shown, Combination mutant scFv) VH: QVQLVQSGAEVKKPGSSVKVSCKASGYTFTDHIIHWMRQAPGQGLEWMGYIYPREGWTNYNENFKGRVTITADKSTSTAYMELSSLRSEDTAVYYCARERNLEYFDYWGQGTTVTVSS VL: DIVLTQSPASLAVSPGQRATITCKASQSVDYEGDNYMNWYQQKPGQPPKLLIYATSNLDSGVPARFSGSGSGTDFTLTINPVEAEDTANYYCQQSVEDPHTFGGGTKVEIK
(A) 0.00418

(Q) Requested read-out: koff. Entry: 18F5 (scFv, V domains shown, Combination mutant scFv) VH: QVQLVQSGAEVKKPGSSVKVSCKASGYTFTDHIIHWMRQAPGQGLEWMGYIYPREGFTNYNENFKGRVTITADKSTSTAYMELSSLRSEDTAVYYCARERNLEYFDYWGQGTTVTVSS VL: DIVLTQSPASLAVSPGQRATITCKASQSVDFEGFNYMNWYQQKPGQPPKLLIYAASNLDSGVPARFSGSGSGTDFTLTINPVEAEDTANYYCQQSVEDPHTFGGGTKVEIK
(A) 0.000319
